target: D(2) dopamine receptor (Rattus norvegicus); assay: Binding affinity towards Dopamine D2 receptor from rat striatal membranes, using [3H]- spiperone as radioligand
Sequence (P61169 whole entry): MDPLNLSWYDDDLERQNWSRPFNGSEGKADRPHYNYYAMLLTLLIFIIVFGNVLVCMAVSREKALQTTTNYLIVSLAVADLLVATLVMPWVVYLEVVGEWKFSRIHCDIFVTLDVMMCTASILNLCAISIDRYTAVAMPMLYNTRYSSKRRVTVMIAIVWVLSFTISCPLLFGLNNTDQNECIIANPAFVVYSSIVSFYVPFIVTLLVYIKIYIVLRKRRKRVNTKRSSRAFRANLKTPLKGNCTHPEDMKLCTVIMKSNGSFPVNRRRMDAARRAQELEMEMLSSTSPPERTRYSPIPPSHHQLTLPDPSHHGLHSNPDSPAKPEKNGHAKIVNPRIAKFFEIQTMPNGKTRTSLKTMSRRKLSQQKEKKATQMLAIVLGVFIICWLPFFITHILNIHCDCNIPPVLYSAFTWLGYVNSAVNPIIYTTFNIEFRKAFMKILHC
MEASUREMENT_KIND: IC50 (nM)

// worked examples, IC50 included
QUERY: Which IC50 is reported for this molecule? `O=C(N[C@H]1CC[C@H]2C[C@H](N3CCN(c4ccccn4)CC3)CC[C@@H]2C1)c1ccccc1`
RESULT: 7100

QUERY: Look at this molecule and give its reported IC50. `O=C(N[C@H]1CC[C@H]2C[C@@H](N3CCN(c4ccccn4)CC3)CC[C@@H]2C1)c1ccccc1`
RESULT: 1100

QUERY: Dear colleague, I am looking for the recorded IC50 of the following molecule: `O=C(N[C@@H]1CC[C@H]2C[C@H](N3CCN(c4ccccn4)CC3)CC[C@@H]2C1)c1ccccc1`
RESULT: 5800

[1] O=C(N[C@H]1CC[C@H](CCN2CCN(c3ccccn3)CC2)CC1)c1ccccc1
[2] O=C(N[C@@H]1CC[C@H]2C[C@@H](N3CCN(c4ccccn4)CC3)CC[C@@H]2C1)c1ccccc1
QUERY: For 1 and 2 , which recorded IC50 is lower? Record your answer as the label of the chosen record.
RESULT: 2

====

target: D(2) dopamine receptor (Homo sapiens); experiment: In vitro inhibition of forskolin-stimulated cAMP accumulation in GH4C1 cells transfected with the human Dopamine D2 receptor
Sequence (P14416 whole entry): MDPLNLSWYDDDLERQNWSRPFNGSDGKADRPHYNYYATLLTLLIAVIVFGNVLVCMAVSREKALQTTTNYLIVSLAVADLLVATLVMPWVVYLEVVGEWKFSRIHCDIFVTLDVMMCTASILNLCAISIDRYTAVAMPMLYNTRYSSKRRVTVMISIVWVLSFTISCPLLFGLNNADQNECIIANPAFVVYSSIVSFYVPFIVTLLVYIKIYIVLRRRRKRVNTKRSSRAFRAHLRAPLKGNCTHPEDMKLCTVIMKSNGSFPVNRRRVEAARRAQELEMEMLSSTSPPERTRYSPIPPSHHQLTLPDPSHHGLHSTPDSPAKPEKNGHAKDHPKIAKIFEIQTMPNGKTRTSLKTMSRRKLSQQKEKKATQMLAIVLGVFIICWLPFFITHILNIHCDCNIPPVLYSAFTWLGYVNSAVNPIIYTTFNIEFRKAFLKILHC
MEASUREMENT_KIND: EC50 (nM)

QUERY: I have this molecule here, `O=C(N[C@H]1CC[C@H]2C[C@@H](N3CCN(c4ccccn4)CC3)CC[C@@H]2C1)c1ccccc1` , and I need its recorded EC50.
RESULT: 240

[I] O=C(N[C@@H]1CC[C@H]2C[C@@H](N3CCN(c4ccccn4)CC3)CC[C@@H]2C1)c1ccccc1
[II] O=C(N[C@H]1CC[C@H](CCN2CCN(c3ccccn3)CC2)CC1)c1ccccc1
QUERY: Sort I and II by EC50 descending and give the first. Answer by quoting the chosen item's label.
RESULT: I
(I: 10.4 nM, II: 4.9 nM)

Provenance of the data: ChEMBL document CHEMBL1127428
